System: CYP
test-protocol: Half life in rat assessed as CYP mediated metabolism in presence of […] by phase I metabolic oxidation assay
Assay type: ADME
property: half-life

### Prompt Requested read-out half-life, target or system CYP, entry Cc1nc(C)c([C@H](OC(C)(C)C)C(=O)O)c(N2CCC(C)(C)CC2)c1-c1ccc(OCCc2ccc(F)cc2)cc1
### Response > 2 h

----------
test-protocol: Solubility of the compound using amorphous form of sample
Assay type: physicochemical
property: solubility

### Prompt GET /values?readout=solubility&item= Cc1nc(C)c([C@H](OC(C)(C)C)C(=O)O)c(N2CCC(C)(C)CC2)c1-c1ccc(OCCc2ccc(F)cc2)cc1
### Response < 1 µg/mL

----------
test-protocol: Tmax in Beagle dog at 2 mg/kg, po by LC-MS/MS analysis
Assay type: ADME, organism-based, Canis lupus familiaris
test-parameters: in vivo
property: Tmax (h)
Express it in h; write the number only.

### Prompt Suppose we examine the molecule Cc1nc(C)c([C@H](OC(C)(C)C)C(=O)O)c(N2CCC(C)(C)CC2)c1-c1ccc(OCCc2ccc(F)cc2)cc1 ; what Tmax value has been reported?
### Response 2

----------
Recorded measurements of half-life at 0.5 µM, one per entry
test-protocol: Metabolic stability in rat liver microsome assessed half life at 0.5 uM by LC-MS/MS analysis
Type: ADME
test-parameters: liver microsomes

Worked cases, answers included:
compound	property	measured-result
Cc1nc(C)c([C@H](OC(C)(C)C)C(=O)O)c(N2CCC(C)(C)CC2)c1-c1ccc(OCCc2ccc(F)cc2)cc1	half-life at 0.5 µM	> 2 h
Cc1noc(C)c1CCOc1ccc(-c2c(C)nc(C)c([C@H](OC(C)(C)C)C(=O)O)c2N2CCC(C)(C)CC2)cc1	half-life at 0.5 µM	1.32 h
Cc1nc(C)c([C@H](OC(C)(C)C)C(=O)O)c(N2CCC(C)(C)CC2)c1-c1ccc(OC2COCC2c2ccc(F)cc2)cc1 (stereo in doubt; 40b)	half-life at 0.5 µM	> 2 h
Cc1cc(CCOc2ccc(-c3c(C)nc(C)c([C@H](OC(C)(C)C)C(=O)O)c3N3CCC(C)(C)CC3)cc2)ccc1F	half-life at 0.5 µM	> 2 h
Cc1nc(C)c([C@H](OC(C)(C)C)C(=O)O)c(N2CCC(C)(C)CC2)c1-c1ccc(OCCc2ccccn2)cc1	half-life at 0.5 µM	1.02 h
Cc1nc(C)c([C@H](OC(C)(C)C)C(=O)O)c(N2CCC(C)(C)CC2)c1-c1ccc(OCCc2ccc(F)c(F)c2)cc1	half-life at 0.5 µM	0.85 h
Cc1nc(C)c([C@H](OC(C)(C)C)C(=O)O)c(N2CCC(C)(C)CC2)c1-c1ccc(OCCc2cccnc2)cc1	half-life at 0.5 µM	0.783 h
Cc1nc(C)c([C@H](OC(C)(C)C)C(=O)O)c(N2CCC(C)(C)CC2)c1-c1ccc(OCCc2cc(F)c(F)cc2F)cc1	half-life at 0.5 µM	> 2 h
COc1cccc(CCOc2ccc(-c3c(C)nc(C)c([C@H](OC(C)(C)C)C(=O)O)c3N3CCC(C)(C)CC3)cc2)c1	half-life at 0.5 µM	> 2 h
COc1ccc(CCOc2ccc(-c3c(C)nc(C)c([C@H](OC(C)(C)C)C(=O)O)c3N3CCC(C)(C)CC3)cc2)cc1	half-life at 0.5 µM	> 2 h

### Prompt Consider the compound shown here: Cc1nc(C)c([C@H](OC(C)(C)C)C(=O)O)c(N2CCC(C)(C)CC2)c1-c1ccc(SCCc2ccc(F)cc2)cc1 What is its recorded half-life at 0.5 µM?
### Response > 2 h

### Prompt Can you handle Cc1nc(C)c(CCOc2ccc(-c3c(C)nc(C)c([C@H](OC(C)(C)C)C(=O)O)c3N3CCC(C)(C)CC3)cc2)s1 next?
### Response > 2 h

### Prompt And for Cc1nc(C)c([C@H](OC(C)(C)C)C(=O)O)c(N2CCC(C)(C)CC2)c1-c1ccc(NCCc2ccc(F)cc2)cc1 ?
### Response 1.83 h

----------
test-protocol: Permeability of the compound at pH 7.4 by PAMPA assay
Assay type: ADME
test-parameters: read-out: permeability
property: Papp (×10⁻⁶ cm/s)
Express your answer in ×10⁻⁶ cm/s, writing the number without its unit.

### Prompt Query: Papp; subject: Cc1nc(C)c([C@H](OC(C)(C)C)C(=O)O)c(N2CCC(C)(C)CC2)c1-c1ccc(OCCc2ccc(F)cc2)cc1
### Response 50.5

----------
test-protocol: Clearance in Cynomolgus monkey at 1 mg/kg, iv by LC-MS/MS analysis
Format: ADME, organism-based, Macaca fascicularis
test-parameters: in vivo
property: clearance (mL/min/kg)
Provide only the numeric value, understood in mL/min/kg.

### Prompt Entry Cc1nc(C)c([C@H](OC(C)(C)C)C(=O)O)c(N2CCC(C)(C)CC2)c1-c1ccc(OCCc2ccc(F)cc2)cc1 has what clearance?
### Response 14.5

----------
test-protocol: Elimination half life in Beagle dog at 1 mg/kg, iv by LC-MS/MS analysis
Assay type: ADME, organism-based, Canis lupus familiaris
test-parameters: in vivo, read-out: beta t1/2 (converted)
property: half-life (h)
Report the value in h with no unit label.

### Prompt So what's the measured half-life for this one? Cc1nc(C)c([C@H](OC(C)(C)C)C(=O)O)c(N2CCC(C)(C)CC2)c1-c1ccc(OCCc2ccc(F)cc2)cc1
### Response 5.1

----------
tested-target: Cytochrome P450 2D6 (Homo sapiens, UniProt P10635)
Sequence (P10635 whole entry): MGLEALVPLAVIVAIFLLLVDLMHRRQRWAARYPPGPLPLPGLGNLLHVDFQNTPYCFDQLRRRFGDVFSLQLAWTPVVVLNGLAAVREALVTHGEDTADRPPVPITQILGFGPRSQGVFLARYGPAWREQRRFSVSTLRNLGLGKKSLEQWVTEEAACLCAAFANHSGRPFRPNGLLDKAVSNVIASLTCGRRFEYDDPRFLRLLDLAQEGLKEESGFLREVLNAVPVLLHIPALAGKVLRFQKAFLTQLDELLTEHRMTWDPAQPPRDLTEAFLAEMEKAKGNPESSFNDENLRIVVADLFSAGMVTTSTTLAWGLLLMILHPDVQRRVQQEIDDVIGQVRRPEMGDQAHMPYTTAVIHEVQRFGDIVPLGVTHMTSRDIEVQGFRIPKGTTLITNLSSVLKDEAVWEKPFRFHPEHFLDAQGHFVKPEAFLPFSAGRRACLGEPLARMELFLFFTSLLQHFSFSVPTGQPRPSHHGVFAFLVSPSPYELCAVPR
pIC50: −log10 of the molar value.
property: pIC50

### Prompt Requested read-out pIC50, target or system Cytochrome P450 2D6 (Homo sapiens, UniProt P10635), entry Cc1nc(C)c([C@H](OC(C)(C)C)C(=O)O)c(N2CCC(C)(C)CC2)c1-c1ccc(OCCc2ccc(F)cc2)cc1
### Response ≤ 4.61

----------
test-protocol: Tmax in Sprague-Dawley rat at 5 mg/kg, po by LC-MS/MS analysis
Type: ADME, organism-based
test-parameters: in vivo
property: Tmax (h)
Answer format: numeric, h implied, no suffix.

### Prompt Bench note: what Tmax did Cc1nc(C)c([C@H](OC(C)(C)C)C(=O)O)c(N2CCC(C)(C)CC2)c1-c1ccc(OCCc2ccc(F)cc2)cc1 show?
### Response 2.7

----------
test-protocol: Volume of distribution at steady state in Beagle dog at 1 mg/kg, iv by LC-MS/MS analysis
Type: ADME, organism-based, Canis lupus familiaris
test-parameters: in vivo, read-out: Vdss
property: Vd

### Prompt Give its Vd value. Item: Cc1nc(C)c([C@H](OC(C)(C)C)C(=O)O)c(N2CCC(C)(C)CC2)c1-c1ccc(OCCc2ccc(F)cc2)cc1
### Response 0.7 L/kg

----------
test-protocol: Metabolic stability in human liver microsome assessed half life at 0.5 uM by LC-MS/MS analysis
Assay type: ADME
test-parameters: liver microsomes
property: half-life at 0.5 µM (min)
Your answer is read as min, so omit the unit and give the number.

Some compounds with recorded half-life at 0.5 µM:
cpd-smiles	property	quantity-unit	measured-result
Cc1noc(C)c1CCOc1ccc(-c2c(C)nc(C)c([C@H](OC(C)(C)C)C(=O)O)c2N2CCC(C)(C)CC2)cc1	half-life at 0.5 µM	min	28
Cc1nc(C)c(CCOc2ccc(-c3c(C)nc(C)c([C@H](OC(C)(C)C)C(=O)O)c3N3CCC(C)(C)CC3)cc2)s1	half-life at 0.5 µM	min	55
Cc1nc(C)c([C@H](OC(C)(C)C)C(=O)O)c(N2CCC(C)(C)CC2)c1-c1ccc(OCCc2cccnc2)cc1	half-life at 0.5 µM	min	22

Please turn your attention to the following entry.
### Prompt Returns the measured half-life at 0.5 µM for the input compound. Input: Cc1nc(C)c([C@H](OC(C)(C)C)C(=O)O)c(N2CCC(C)(C)CC2)c1-c1ccc(OCCc2ccc(F)cc2F)cc1
### Response 65

----------
Catalogue of molecules with associated clearance
test-protocol: Clearance in Sprague-Dawley rat at 1 mg/kg, iv by LC-MS/MS analysis
Format: ADME, organism-based
test-parameters: in vivo
Give the quantity in mL/min/kg, number only.

Below, each entry is followed by its recorded clearance result.
cpd-smiles	quantity-unit	measured-result
Cc1cc(CCOc2ccc(-c3c(C)nc(C)c([C@H](OC(C)(C)C)C(=O)O)c3N3CCC(C)(C)CC3)cc2)ccc1F	mL/min/kg	7.8
Cc1nc(C)c(CCOc2ccc(-c3c(C)nc(C)c([C@H](OC(C)(C)C)C(=O)O)c3N3CCC(C)(C)CC3)cc2)s1	mL/min/kg	30.1
Cc1nc(C)c([C@H](OC(C)(C)C)C(=O)O)c(N2CCC(C)(C)CC2)c1-c1ccc(NCCc2ccc(F)cc2)cc1	mL/min/kg	12

### Prompt For the molecule shown here, Cc1ncsc1CCOc1ccc(-c2c(C)nc(C)c([C@H](OC(C)(C)C)C(=O)O)c2N2CCC(C)(C)CC2)cc1 , give the reported clearance.
### Response 69
